assay: Inhibition of recombinant Plasmodium falciparum FLN expressed in Escherichia coli BL21 using Dabcyl-HKRHSFRMRG-EDANS as substrate incubated for 10 mins by fluorecence assay
pIC50: −log10 of the molar value.
Please provide measured pIC50 for the entries that follow.

Ask: # pIC50 lookup, item c1cnc2c(c1)CN(c1nc(-c3c[nH]c4ccccc34)nc3c1CNC3)CC2
Result: 4.68

Ask: What about Cc1cc2cc(CCNC(=O)c3ccc4ccccc4c3)c(=O)[nH]c2cc1C ?
Result: < 4.60

Ask: Next up: Cc1nn(-c2cccc(C(=O)N3CCN(C)C(=O)C3)c2)c(=O)c2ccccc12
Result: < 4.60

Ask: Try this compound too: Cc1cccc(-c2nc3c4ccccc4nc(NCCc4ccccc4)n3n2)c1
Result: < 4.60

Ask: And what about the compound Cc1cccc(NC(=O)Cn2c(C)cc(=O)n3nc(-c4cccc(C)c4)nc23)c1 ?
Result: < 4.60

Ask: Continue with O=C(Nc1ccc(Cl)cc1)Nc1nnc2nc(CC(=O)c3ccc4ccccc4c3)c(=O)[nH]n12
Result: 4.72

Ask: Now give it for Cc1ccc(N2C[C@@H](c3nc(-c4ccc5oc(C)nc5c4)no3)CC2=O)cc1 too.
Result: < 4.60

Ask: Request: Cc1nc2ccccc2c(=O)n1Cc1noc(-c2cc3ccccc3oc2=O)n1
Result: < 4.60

Ask: Entry Nc1c(C(=O)Nc2ccc3c(c2)C(=O)c2ccccc2C3=O)ccc2c1C(=O)c1ccccc1C2=O please
Result: 5.75

Ask: Try the compound C[C@H]1CCc2[nH]c3ccc(C(=O)NC[C@H]4COc5ccccc5O4)cc3c2C1
Result: < 4.60

Ask: Moving on to the next compound: O=C1/C(=c2/c3ccccc3n3c(=O)c4ccccc4nc23)Nc2ccccc21
Result: < 4.60

Ask: Record: C[C@@H](c1cc(=O)[nH]c(N[C@H]2CCc3ccccc32)n1)n1ncc2ccccc2c1=O
Result: < 4.60

Ask: What about Cn1nc(C(=O)NCc2ccccc2)c2c1CCN(Cc1cc3ccccc3[nH]1)C2 ?
Result: < 4.60

Ask: Next: Cc1ccc(-c2nc3cccnc3n2CCNC(=O)Nc2ccccc2F)cc1
Result: < 4.60

Values were extracted from ChEMBL document CHEMBL5030551.
